Quick list: Platelet Coagulation-Inhibitory Action IC50, ADP Stimulation per entry.
System: human plasma rich in platelet
MEASUREMENT_NOTES: Platelet coagulation-inhibitory activity in vitro, transmittance by aggregometer
Format: cell-based
ASSAY_CONTEXT: ADP stimulation (50 μM ADP solution), 37° C., 3 minutes preincubation
No end group written: not given here. sulfated CM‑chitin = sulfated carboxymethyl-chitin (CM-chitin), conjugated to the peptide; CM‑Chitin = carboxymethyl chitin
MEASURED_METRIC: Platelet Coagulation-Inhibitory Action IC50, ADP Stimulation (µg/mL)

[
  {
    "SUBSTANCE": "CM-Chitin Gly-Arg-Gly-Asp-Ser (GRGDS; also: conjugated to CM-chitin) [CM--chitin derivative-7]",
    "OBSERVED_MEASUREMENT": 30
  },
  {
    "SUBSTANCE": "CM-Chitin-Arg-Gly-Asp-Ser ({CM‑Chitin}-RGDS) [CM--chitin derivative-1, rate of introduction of Arg-Gly-Asp-Ser fragments about 10%]",
    "OBSERVED_MEASUREMENT": 15
  },
  {
    "SUBSTANCE": "Sulfated CM-Chitin-Arg-Gly-Asp-Ser ({sulfated CM‑chitin}-RGDS) [CM--chitin derivative-13]",
    "OBSERVED_MEASUREMENT": 17
  }
]
